Target Entity: Estrogen receptor (Homo sapiens)
Test Method Notes: qHTS assay for small molecule antagonists of estrogen receptor alpha signaling (AID 588513)
Recorded Conditions: ER-alpha-UAS-bla HEK293, beta-lactamase ratio, antagonist mode; series mostly up to 76.9 µM
Results filed as inconclusive are left out. The source made the active and inactive calls. Calls follow the shape of the dose curve; as a rule, active = well fitted curve in the direction sought with a large enough effect in the signal ratio, with a control signal flat (not every such curve was filed as active); inconclusive = small, poorly fitted or top-dose-only effect, or effect the other way, or a change in a side signal; inactive = no such curve, though single readings can be large or run the other way; the % refers to the signal ratio.
Use one of these outcomes when replying: active, inactive

# Compound, Qualitative Label
data = [
    ("O=C(O)c1ccccc1", "inactive"),
    ("O=C(O)CC(C(=O)O)C(CC(=O)O)C(=O)O (configuration not stated)", "inactive"),
    ("CC(=O)OC/C=C(\\C)CCC=C(C)C", "inactive"),
    ("Cc1cccc([N+](=O)[O-])c1C", "inactive"),
]

We now examine a further compound.
Q: Identify the outcome logged in this assay for the compound shown: `c1ccc2c(c1)c1cccc3ccc4cccc2c4c31`
Ans: inactive
